molecular target: T1, hVISTA-ECD 6-His tag (human, UniProt Q9H7M9 33-193); assay: SPR; kd at pH 6.45 over kd at pH 6.0 (head prints 7.4)
T1 construct: also called monovalent hVISTA-ECD; human VISTA
T1 sequence (Q9H7M9 other isoform, or with tags, fused parts or gaps limits assumed): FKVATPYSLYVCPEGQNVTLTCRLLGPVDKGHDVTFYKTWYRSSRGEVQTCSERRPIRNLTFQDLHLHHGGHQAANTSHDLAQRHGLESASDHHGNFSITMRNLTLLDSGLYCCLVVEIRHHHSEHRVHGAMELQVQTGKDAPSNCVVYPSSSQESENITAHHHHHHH
ENDPOINT NAME: 7.4 kd/ 6.0 kd

Answered examples (2):
P1-068744 (antibody, human IgG1, kappa, V domains shown, also called P1-068744-7) VH: QVQLVESGGGVVQPGRSLRLSCAASGFTFSEYAMHWVRQAPGKGLEWVAHIWYDGSNKYEADSVKGRFTISRDNSKNTLYLQMNSLRAEDTAVYYCARDSGFYESYYFDEWGQGTLVTVSS VL: EIVLTQSPATLSLSPGERATLSCRASQSVSSSYLAWYQQKPGQAPRLLIYDASNRATGIPARFSGSGSGTDFTLTISSLEPEDFATYYCQQYNSYPYTFGQGTKLEIKR    3.2
P1-070976 (41F11_VH_T28P_Y50W_S55E_D95H_L96E_P97E_Y100E; Vk_A64G) (antibody, V domains shown, They look like Kabat positions on the mature VH, but no numbering scheme is stated; also called P1-070976-11) VH: QVQLVESGGGLVKPGGSLRLSCAASGFPFSDYYMSWIRQAPGKGLEWVSWISNSGEPIYYADSVKGRFTISRDNAKNSLYLQMNSLRAEDTAVYYCARHEEGWEFDLWGRGTLVTVSS VL: EIVLTQSPATLSLSPGERATLSCRASQSVSSYLAWYQQKPGQAPRLLIYDASNRATGIPARFSGSGSGTDFTLTISSLEPEDFAVYYCQQRNNWPRTFGQGTKVEIK    1.7

We now examine a further binder.
Query block: // fetch 7.4 kd/ 6.0 kd given entry P1-068748 (antibody, human IgG1, kappa, V domains shown, also called P1-068748-6) VH: QVQLVESGGGVVQPGRSLRLSCAASGFTFSHHAMHWVRQAPGKGLEWVAIIWYDGSNDDYADSVKGRFTISRDNSKNTLYLQMNSLRAEDTAVYYCARDSGFYDSYYFDYWGQGTLVTVSS VL: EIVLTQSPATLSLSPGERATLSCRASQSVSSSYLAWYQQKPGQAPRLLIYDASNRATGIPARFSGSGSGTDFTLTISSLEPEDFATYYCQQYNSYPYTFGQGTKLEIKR
Result block: 3.4
